Conditions: in ethyl acetate, 303.15 K
PARAMETER_MEASURED: solubility (mole fraction)
The answer should be written as a number, with no unit following it.

Query string: Given the compound CCCc1nc(C(C)(C)O)c(C(=O)OCC)n1Cc1ccc(-c2ccccc2-c2nnnn2C(c2ccccc2)(c2ccccc2)c2ccccc2)cc1 , write its reported solubility (mole fraction).
Result string: 0.00445

* * *

Settings: in DMF, 318.15 K
PARAMETER_MEASURED: solubility (mole fraction)

Query string: Given the compound CCCc1nc(C(C)(C)O)c(C(=O)OCC)n1Cc1ccc(-c2ccccc2-c2nnnn2C(c2ccccc2)(c2ccccc2)c2ccccc2)cc1 , write its reported solubility (mole fraction).
Result string: 0.00553

* * *

Conditions: in DMF, 313.15 K
PARAMETER_MEASURED: solubility (mole fraction)

Query string: Given the compound CCCc1nc(C(C)(C)O)c(C(=O)OCC)n1Cc1ccc(-c2ccccc2-c2nnnn2C(c2ccccc2)(c2ccccc2)c2ccccc2)cc1 , write its reported solubility (mole fraction).
Result string: 0.00471

* * *

Conditions: in ethanol, 288.15 K
PARAMETER_MEASURED: solubility (mole fraction)
The answer should be written as a number, with no unit following it.

Query string: Given the compound CCCc1nc(C(C)(C)O)c(C(=O)OCC)n1Cc1ccc(-c2ccccc2-c2nnnn2C(c2ccccc2)(c2ccccc2)c2ccccc2)cc1 , write its reported solubility (mole fraction).
Result string: 0.000124

* * *

Conditions: in ethanol, 298.15 K
PARAMETER_MEASURED: solubility (mole fraction)
The answer should be written as a number, with no unit following it.

Query string: Given the compound CCCc1nc(C(C)(C)O)c(C(=O)OCC)n1Cc1ccc(-c2ccccc2-c2nnnn2C(c2ccccc2)(c2ccccc2)c2ccccc2)cc1 , write its reported solubility (mole fraction).
Result string: 0.000174

* * *

Settings: in n-butanol, 318.15 K
PARAMETER_MEASURED: solubility (mole fraction)
The answer should be written as a number, with no unit following it.

Query string: Given the molecule CCCc1nc(C(C)(C)O)c(C(=O)OCC)n1Cc1ccc(-c2ccccc2-c2nnnn2C(c2ccccc2)(c2ccccc2)c2ccccc2)cc1 , write its reported solubility (mole fraction).
Result string: 0.000588

* * *

Details: in toluene, 298.15 K
PARAMETER_MEASURED: solubility (mole fraction)
The answer should be written as a number, with no unit following it.

Query string: Given the compound CCCc1nc(C(C)(C)O)c(C(=O)OCC)n1Cc1ccc(-c2ccccc2-c2nnnn2C(c2ccccc2)(c2ccccc2)c2ccccc2)cc1 , write its reported solubility (mole fraction).
Result string: 0.00608

* * *

Settings: in isopropanol, 308.15 K
PARAMETER_MEASURED: solubility (mole fraction)

Query string: Given the compound CCCc1nc(C(C)(C)O)c(C(=O)OCC)n1Cc1ccc(-c2ccccc2-c2nnnn2C(c2ccccc2)(c2ccccc2)c2ccccc2)cc1 , write its reported solubility (mole fraction).
Result string: 0.00017

* * *

Settings: in methanol, 313.15 K
PARAMETER_MEASURED: solubility (mole fraction)

Query string: Given the molecule CCCc1nc(C(C)(C)O)c(C(=O)OCC)n1Cc1ccc(-c2ccccc2-c2nnnn2C(c2ccccc2)(c2ccccc2)c2ccccc2)cc1 , write its reported solubility (mole fraction).
Result string: 0.000152

* * *

Conditions: in n-propanol, 313.15 K
PARAMETER_MEASURED: solubility (mole fraction)

Query string: Given the molecule CCCc1nc(C(C)(C)O)c(C(=O)OCC)n1Cc1ccc(-c2ccccc2-c2nnnn2C(c2ccccc2)(c2ccccc2)c2ccccc2)cc1 , write its reported solubility (mole fraction).
Result string: 0.000454

* * *

Conditions: in isobutanol, 293.15 K
PARAMETER_MEASURED: solubility (mole fraction)

Query string: Given the compound CCCc1nc(C(C)(C)O)c(C(=O)OCC)n1Cc1ccc(-c2ccccc2-c2nnnn2C(c2ccccc2)(c2ccccc2)c2ccccc2)cc1 , write its reported solubility (mole fraction).
Result string: 0.000216

* * *

Details: in n-butanol, 293.15 K
PARAMETER_MEASURED: solubility (mole fraction)
The answer should be written as a number, with no unit following it.

Query string: Given the compound CCCc1nc(C(C)(C)O)c(C(=O)OCC)n1Cc1ccc(-c2ccccc2-c2nnnn2C(c2ccccc2)(c2ccccc2)c2ccccc2)cc1 , write its reported solubility (mole fraction).
Result string: 0.000298

* * *

Details: in DMF, 288.15 K
PARAMETER_MEASURED: solubility (mole fraction)
The answer should be written as a number, with no unit following it.

Query string: Given the molecule CCCc1nc(C(C)(C)O)c(C(=O)OCC)n1Cc1ccc(-c2ccccc2-c2nnnn2C(c2ccccc2)(c2ccccc2)c2ccccc2)cc1 , write its reported solubility (mole fraction).
Result string: 0.00186

* * *

Settings: in acetonitrile, 318.15 K
PARAMETER_MEASURED: solubility (mole fraction)
The answer should be written as a number, with no unit following it.

Query string: Given the compound CCCc1nc(C(C)(C)O)c(C(=O)OCC)n1Cc1ccc(-c2ccccc2-c2nnnn2C(c2ccccc2)(c2ccccc2)c2ccccc2)cc1 , write its reported solubility (mole fraction).
Result string: 0.000901

* * *

Conditions: in ethanol, 308.15 K
PARAMETER_MEASURED: solubility (mole fraction)
The answer should be written as a number, with no unit following it.

Query string: Given the compound CCCc1nc(C(C)(C)O)c(C(=O)OCC)n1Cc1ccc(-c2ccccc2-c2nnnn2C(c2ccccc2)(c2ccccc2)c2ccccc2)cc1 , write its reported solubility (mole fraction).
Result string: 0.000239

* * *

Details: in acetone, 318.15 K
PARAMETER_MEASURED: solubility (mole fraction)
The answer should be written as a number, with no unit following it.

Query string: Given the molecule CCCc1nc(C(C)(C)O)c(C(=O)OCC)n1Cc1ccc(-c2ccccc2-c2nnnn2C(c2ccccc2)(c2ccccc2)c2ccccc2)cc1 , write its reported solubility (mole fraction).
Result string: 0.00417

* * *

Conditions: in ethanol, 318.15 K
PARAMETER_MEASURED: solubility (mole fraction)
The answer should be written as a number, with no unit following it.

Query string: Given the molecule CCCc1nc(C(C)(C)O)c(C(=O)OCC)n1Cc1ccc(-c2ccccc2-c2nnnn2C(c2ccccc2)(c2ccccc2)c2ccccc2)cc1 , write its reported solubility (mole fraction).
Result string: 0.000318

* * *

Conditions: in isobutanol, 278.15 K
PARAMETER_MEASURED: solubility (mole fraction)
The answer should be written as a number, with no unit following it.

Query string: Given the compound CCCc1nc(C(C)(C)O)c(C(=O)OCC)n1Cc1ccc(-c2ccccc2-c2nnnn2C(c2ccccc2)(c2ccccc2)c2ccccc2)cc1 , write its reported solubility (mole fraction).
Result string: 0.00012

* * *

Conditions: in toluene, 288.15 K
PARAMETER_MEASURED: solubility (mole fraction)
The answer should be written as a number, with no unit following it.

Query string: Given the molecule CCCc1nc(C(C)(C)O)c(C(=O)OCC)n1Cc1ccc(-c2ccccc2-c2nnnn2C(c2ccccc2)(c2ccccc2)c2ccccc2)cc1 , write its reported solubility (mole fraction).
Result string: 0.00403

* * *

Conditions: in acetonitrile, 303.15 K
PARAMETER_MEASURED: solubility (mole fraction)

Query string: Given the molecule CCCc1nc(C(C)(C)O)c(C(=O)OCC)n1Cc1ccc(-c2ccccc2-c2nnnn2C(c2ccccc2)(c2ccccc2)c2ccccc2)cc1 , write its reported solubility (mole fraction).
Result string: 0.000597

* * *

Conditions: in acetonitrile, 298.15 K
PARAMETER_MEASURED: solubility (mole fraction)
The answer should be written as a number, with no unit following it.

Query string: Given the molecule CCCc1nc(C(C)(C)O)c(C(=O)OCC)n1Cc1ccc(-c2ccccc2-c2nnnn2C(c2ccccc2)(c2ccccc2)c2ccccc2)cc1 , write its reported solubility (mole fraction).
Result string: 0.000513

* * *

Conditions: in acetonitrile, 283.15 K
PARAMETER_MEASURED: solubility (mole fraction)
The answer should be written as a number, with no unit following it.

Query string: Given the molecule CCCc1nc(C(C)(C)O)c(C(=O)OCC)n1Cc1ccc(-c2ccccc2-c2nnnn2C(c2ccccc2)(c2ccccc2)c2ccccc2)cc1 , write its reported solubility (mole fraction).
Result string: 0.000315

* * *

Conditions: in methanol, 288.15 K
PARAMETER_MEASURED: solubility (mole fraction)

Query string: Given the compound CCCc1nc(C(C)(C)O)c(C(=O)OCC)n1Cc1ccc(-c2ccccc2-c2nnnn2C(c2ccccc2)(c2ccccc2)c2ccccc2)cc1 , write its reported solubility (mole fraction).
Result string: 6.64e-05

* * *

Conditions: in cyclohexanone, 298.15 K
PARAMETER_MEASURED: solubility (mole fraction)
The answer should be written as a number, with no unit following it.

Query string: Given the molecule CCCc1nc(C(C)(C)O)c(C(=O)OCC)n1Cc1ccc(-c2ccccc2-c2nnnn2C(c2ccccc2)(c2ccccc2)c2ccccc2)cc1 , write its reported solubility (mole fraction).
Result string: 0.0128
